These entries and their values trace back to paper PMC3459575.

subject.of.test: UniProtKB P18405
Sequence (P18405 whole entry): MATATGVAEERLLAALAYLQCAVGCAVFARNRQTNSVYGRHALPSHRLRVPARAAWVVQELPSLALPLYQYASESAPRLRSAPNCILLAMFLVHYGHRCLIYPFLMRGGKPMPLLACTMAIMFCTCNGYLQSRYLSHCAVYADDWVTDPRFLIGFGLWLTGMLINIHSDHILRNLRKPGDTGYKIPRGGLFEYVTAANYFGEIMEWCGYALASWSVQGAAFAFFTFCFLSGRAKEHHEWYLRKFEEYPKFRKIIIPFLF
readout.kind: IC50

### Prompt # query: IC50 of entry CC(C)(C)NC(=O)[C@H]1CC[C@H]2[C@@H]3CC[C@H]4NC(=O)C=C[C@]4(C)[C@H]3CC[C@]12C [finasteride]
### Response ~800 nM
